Data origin, for the record: PubChem BioAssay (NCI)

- Test system: KM12 colon
- protocol-description: NCI tumour cell line growth inhibition, 48 h; in the data active means GI50 below about 0.43 µM; inactive means the rest
Just give me one of these, please: active, inactive

| compound | assigned-class |
| --- | --- |
| COc1cc(C(=O)c2cc(C)c3[nH]c4ccc(O)cc4c3c2C)cc(OC)c1OC | active |
| CSc1ccc(C2=NN(C(C)=O)C(c3ccc(-c4ccc(Cl)cc4)o3)C2)cc1 (centres undefined) | inactive |
| CN1CCc2nc3sc(C(N)=O)c(N)c3c(-c3cccs3)c2C1 | inactive |

Turning now to a further record.
What outcome does the record of this test show for "C/C(=N\O)c1cccc(Nc2cc(-n3ccnc3)c3ccccc3n2)c1" ?
inactive

* * *

Quick list: GI50 per entry.
- Test system: CAKI-1 renal
- protocol-description: NCI tumour cell line growth inhibition, 48 h

CAKI-1 renal data for CCN1C(=O)N(CC)C2C1NN=c1s/c(=C\c3ccc(F)cc3)c(=O)n12 (configuration not stated) ; its GI50: 72.2 nM

* * *

- Tested on: IGROV1 ovarian
- protocol-description: NCI tumour cell line growth inhibition, 48 h; in the data active = GI50 below about 0.43 µM; inactive = the rest
Just give me one of these, please: active, inactive

Below, 3 compounds whose answers are already recorded.
| mol-smiles | assigned-class |
| --- | --- |
| N#CCCNc1nonc1-c1nc2ccccc2n1CC(=O)c1ccc(NC(=O)[C@@H](N)CCCCN)cc1 | active |
| COc1ccc2c(-c3ccnc(Nc4cccc(OC(F)(F)F)c4)n3)cnn2n1 | inactive |
| CCOC(=O)c1cc2c(cc1Cl)SC(=Nc1ccccc1)N(S(=O)(=O)c1ccc(Br)s1)S2(=O)=O | inactive |

Turning now to a further record.
What outcome does the record of this test show for "CCc1c(C)nc2sc3c(N)ncnc3c2c1C" ?
inactive

* * *

Quick list: TGI per entry.
- Test system: SR leukemia
- protocol-description: NCI tumour cell line growth inhibition, 48 h

| molecule | readout-kind | result |
| --- | --- | --- |
| Cc1cc2c(cc1C)[n+](=O)c(C(=O)c1ccccc1)c(C(F)(F)F)n2[O-] | TGI | 2.9 µM |
| N#Cc1nc(C#N)n(S(=O)(=O)c2ccccc2)c1NS(=O)(=O)c1ccccc1 | TGI | > 100 µM |
| N[C@H](COCc1ccccc1)c1ccccc1 | TGI | 56 µM |
| CC[C@@]1(O)C(=O)OCc2c1cc1n(c2=O)Cc2c-1nc1ccccc1c2/C=N\NC(=O)C(N)CCSC (stereo partly drawn) | TGI | < 0.0397 µM |
| CC(=O)OCC1OC(OCCCOP(=S)(OCCC#N)OCC2OC(n3ccc(N)nc3=O)C(OC(=O)c3ccccc3)C2OC(=O)c2ccccc2)C(OC(C)=O)C(OC(C)=O)C1OC(C)=O (stereo not drawn) | TGI | > 100 µM |
| CC1=C(CC2C(=O)N(c3ccccc3)S(=O)(=O)NC2C)C(=O)N(c2ccccc2)S(=O)(=O)N1C (stereo not drawn) | TGI | > 100 µM |

The molecule identified as "O=Nc1c(-c2c(O)[nH]c3ncccc23)[nH]c2ccccc12" registered its TGI at > 100 µM

The molecule identified as "COc1ccc(CNc2cc(=O)n(C)c(=O)[nH]2)cc1" registered its TGI at > 100 µM

The molecule identified as "NNc1nnc(-c2nnc(NN)o2)o1" registered its TGI at > 10 µM

The molecule identified as "O=C1Cc2c([nH]c3ccc(C(=O)O)cc23)-c2ccccc2N1" registered its TGI at > 100 µM

The molecule identified as CC1c2ccccc2CCN1c1ccc(CO)c(Cl)c1 (stereo not drawn) registered its TGI at > 85.9 µM

The molecule identified as "COc1cc(C(=O)Nc2cc(O)c(CC=C(C)C)c(O)c2)cc2c1O[C@]1(C)CC[C@@H](O)C(C)(C)[C@H]1C2" registered its TGI at > 100 µM

The molecule identified as "C=CCc1cc(Nc2c3ccc(Cl)cc3nc3ccc(OC)cc23)cc(CN(CC)CC)c1O" registered its TGI at 3.47 µM

* * *

- System: KM12 colon
- protocol-description: NCI tumour cell line growth inhibition, 48 h
readout-kind: TGI

Past entries and their recorded results:
| compound | TGI |
| --- | --- |
| COc1ccc(NC(=O)C(=O)/C=C(\O)c2ccccc2)cc1 | > 10 µM |
| Cc1cc(=O)c2c(O)cc3c(c2o1)CC=C(COC1OC(COC2OC(CO)C(O)C(O)C2O)C(O)C(O)C1O)CO3 (stereo not drawn) | > 100 µM |
| COc1ccc(Nc2ccnc(N3CCN(c4ccnc5cc(Cl)ccc45)CC3)n2)cc1 | 4.16 µM |
| CC(CO)(Nc1ccc([N+](=O)[O-])cc1[N+](=O)[O-])C(=O)O (stereo not drawn) | > 100 µM |
| N/C(=N\OC(=O)c1ccccc1)C(Cc1ccccc1)C(=O)NOC(=O)c1ccccc1 (stereo not drawn) | 5.28 µM |

KM12 colon data for Cc1ccccc1C(=O)C1CCCCC1O (stereo not drawn) ; its TGI: > 100 µM

KM12 colon data for "COc1ccc2c(c1)C(=O)c1c-2c(OCCN(C)C)nc2ccccc12" ; its TGI: 3.28 µM

* * *

- Tested on: NCI-H460 lung
Just give me one of these, please: active, inactive

Below, 8 compounds whose answers are already recorded.
| compound | assigned-class |
| --- | --- |
| O=C1C(OCCOc2ccccc2)=C(OCCOc2ccccc2)C(=O)c2ccccc21 | inactive |
| Oc1cccc2c1NCCC2 | active |
| O=c1c2cc(F)ccc2sc2c(NCCCNCCO)nc3ccccc3c12 | inactive |
| CC1C=CC(OC(=O)C(C)(O)CCC(O)(C(=O)OC2CC(O)C(C(C)C)CC2(C)O)C(C)C)(C(C)C)CC1 (stereo not drawn) | inactive |
| CC(C)C[C@H](NC(=O)CCn1ccc2ccccc2c1=O)B(O)O | inactive |
| COc1ccc(Nc2ccc([N+](=O)[O-])cc2[N+](=O)[O-])cc1CN(CCCl)CCCl | inactive |
| CN1CCc2nc3sc(C(N)=O)c(N)c3c(-c3cccs3)c2C1 | inactive |
| C[CH2][Hg][S]c1ccccc1C(=O)O | inactive |

What outcome does the record of this test show for "COc1cc(C(=O)Nc2cc(O)c(CC=C(C)C)c(O)c2)cc2c1O[C@]1(C)CC[C@@H](O)C(C)(C)[C@H]1C2" ?
inactive

What outcome does the record of this test show for "CN1CCN(CCCCCN=c2cc3c(=O)n(CCCCCN4CCN(C)CC4)c(=O)c4c(NCCCCCN5CCN(C)CC5)cc5c(O)n(CCCCCN6CCN(C)CC6)c(=O)c2c5c4-3)CC1" ?
inactive

What outcome does the record of this test show for "O=C(Nc1ccccc1OC(=O)c1ccccc1)c1ccccc1" ?
inactive

What outcome does the record of this test show for "Oc1c(-c2cc(C(F)(F)F)[nH]n2)cc(Cl)c(OCc2ccc(Cl)cc2)c1-c1ccc(Cl)c(C(F)(F)F)c1" ?
active

What outcome does the record of this test show for "Fc1ccc(/C=N/n2c(-c3ccc(F)c(Cl)c3)n[nH]c2=S)cc1" ?
inactive

What outcome does the record of this test show for C[C@@H]1Cc2cc(O)ccc2[C@H]2CC[C@]3(C)/C(=C/COCCN(C)C)CC[C@H]3[C@H]12 (tested in a mixture with another compound) ?
active

* * *

Quick list: TGI per entry.
- Tested on: NCI/ADR-RES ovarian
- protocol-description: NCI tumour cell line growth inhibition, 48 h
The response must be a number in µM with no trailing unit.

| compound | readout-kind | recorded-number |
| --- | --- | --- |
| COc1ccc(Nc2ccnc(N3CCN(c4ccnc5cc(Cl)ccc45)CC3)n2)cc1 | TGI | 5.22 |
| c1ccc(N=C2c3ccsc3C(=Nc3ccccc3)c3ccsc32)cc1 | TGI | 14.4 |
| CC1c2ccccc2CCN1c1ccc(CO)c(Cl)c1 (centres undefined) | TGI | 50.5 |
| O=C(c1ccco1)N(C(=O)N1CCN(c2ccccc2)CC1)S(=O)(=O)c1ccccc1 | TGI | 55.1 |
| C=CCc1cc(Nc2c3ccc(Cl)cc3nc3ccc(OC)cc23)cc(CN(CC)CC)c1O | TGI | 10.8 |

// next entry
The compound identified as "Oc1c(-c2cc(C(F)(F)F)[nH]n2)cc(Cl)c(OCc2ccc(Cl)cc2)c1-c1ccc(Cl)c(C(F)(F)F)c1" registered its TGI at 5.82

* * *

- System: SNB-19 CNS
- protocol-description: NCI tumour cell line growth inhibition, 48 h
Quick list: GI50 per entry.

| molecule | GI50 |
| --- | --- |
| Fc1ccc(/C=N/n2c(-c3ccc(F)c(Cl)c3)n[nH]c2=S)cc1 | 22.5 µM |
| O=C(CN1N=C(c2ccc(F)cc2)CCC1=O)Nc1nc2ccccc2s1 | > 96.7 µM |

The molecule identified as "CC(C)C[C@H](NC(=O)CCn1ccc2ccccc2c1=O)B(O)O" registered its GI50 at 8.02 µM

The molecule identified as "N#CCCNc1nonc1-c1nc2ccccc2n1CC(=O)c1ccc(NC(=O)[C@@H](N)CCCCN)cc1" registered its GI50 at > 100 µM

The molecule identified as "CCOC(=O)c1cc2c(cc1Cl)SC(=Nc1ccccc1)N(S(=O)(=O)c1ccc(Br)s1)S2(=O)=O" registered its GI50 at 36.6 µM

The molecule identified as "C/C(=N\O)c1cccc(Nc2cc(-n3ccnc3)c3ccccc3n2)c1" registered its GI50 at 17.5 µM

The molecule identified as "C=CCc1cc(Nc2c3ccc(Cl)cc3nc3ccc(OC)cc23)cc(CN(CC)CC)c1O" registered its GI50 at 2.03 µM

The molecule identified as "Oc1c(-c2cc(C(F)(F)F)[nH]n2)cc(Cl)c(OCc2ccc(Cl)cc2)c1-c1ccc(Cl)c(C(F)(F)F)c1" registered its GI50 at 0.565 µM

The molecule identified as "COc1ccc(/C=C(\C)[N+](=O)[O-])cc1OC" registered its GI50 at 11.3 µM

The molecule identified as Nc1n[nH]c2ccc([C@@H]3Nc4cc5c(cc4[C@H]4C6CCC(C6)[C@@H]34)C(=O)NC5)cc12 (some centres not stated) registered its GI50 at 0.57 µM

The molecule identified as "COC(=O)c1cc(-c2ccc(OC)c(OC)c2)[nH]c1N/N=C/c1c(Cl)cccc1Cl" registered its GI50 at 0.673 µM

The molecule identified as "Cc1[nH]c(-c2cc(N)ccc2Cl)c2c1C(=O)CCCC2" registered its GI50 at 4.53 µM
